target: Histamine H3 receptor (Homo sapiens); experiment: Displacement of [125I]Iodoproxyfan from recombinant human histamine H3 receptor expressed in CHOK1 cell membranes after 90 mins
Sequence (Q9Y5N1 whole entry): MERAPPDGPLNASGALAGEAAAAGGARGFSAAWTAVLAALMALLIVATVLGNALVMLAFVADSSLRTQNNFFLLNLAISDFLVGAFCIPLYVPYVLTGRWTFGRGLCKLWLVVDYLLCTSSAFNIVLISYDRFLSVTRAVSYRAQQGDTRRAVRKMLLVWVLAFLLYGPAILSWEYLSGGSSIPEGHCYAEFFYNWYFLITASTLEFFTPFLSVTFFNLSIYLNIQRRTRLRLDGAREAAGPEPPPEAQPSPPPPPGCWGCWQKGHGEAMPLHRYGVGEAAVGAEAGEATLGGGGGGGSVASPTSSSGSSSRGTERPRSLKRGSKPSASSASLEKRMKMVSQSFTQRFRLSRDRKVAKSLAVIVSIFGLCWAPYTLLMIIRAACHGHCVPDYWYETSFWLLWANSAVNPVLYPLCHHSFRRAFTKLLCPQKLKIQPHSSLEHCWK
Form field: Ki (one value per entry).

Compound | Tested Target | Ki
CCC(C)(C)c1ccc(OCCCCCCCCN2CCCCC2)cc1.O=C(O)C(=O)O | Histamine H3 receptor (Homo sapiens) | 326 nM
CCC(C)(C)c1ccc(OCCCCCN2CCCCC2)cc1.O=C(O)C(=O)O | Histamine H3 receptor (Homo sapiens) | 8.8 nM
CCC(C)(C)c1ccc(OCCCCCCN2CCCCC2)cc1.O=C(O)C(=O)O | Histamine H3 receptor (Homo sapiens) | 46.5 nM
CCC(C)(C)c1ccc(OCCCCCN2CCCCCC2)cc1.O=C(O)C(=O)O | Histamine H3 receptor (Homo sapiens) | 21.4 nM
CCC(C)(C)c1ccc(OCCCCCCCCN2CCC(C)CC2)cc1.O=C(O)C(=O)O | Histamine H3 receptor (Homo sapiens) | 308 nM
CCC(C)(C)c1ccc(OCCCCCCCCN2CCCCCC2)cc1.O=C(O)C(=O)O | Histamine H3 receptor (Homo sapiens) | 182 nM
CCC(C)(C)c1ccc(OCCCCCCCN2CCCC(C)C2)cc1.O=C(O)C(=O)O (stereo not given) | Histamine H3 receptor (Homo sapiens) | 36.6 nM
CCC(C)(C)c1ccc(OCCCCCCN2CCC(C)CC2)cc1.O=C(O)C(=O)O | Histamine H3 receptor (Homo sapiens) | 60.5 nM
CCC(C)(C)c1ccc(OCCCCCCCCN2CCCC(C)C2)cc1.O=C(O)C(=O)O (stereo not given) | Histamine H3 receptor (Homo sapiens) | 121 nM
CCC(C)(C)c1ccc(OCCCCCN2CCCC(C)C2)cc1.O=C(O)C(=O)O (stereo not given) | Histamine H3 receptor (Homo sapiens) | 13.6 nM

* * *

tested on: Mus musculus; experiment: Anticonvulsant activity in CF-1 albino mouse assessed as protection against maximal electroshock-induced seizures at 30 mg/kg, ip after 0.5 hrs; assay type: functional, organism-based
The source made the active and inactive calls. No cut-off for these calls is given here.
Classes used: active, inactive

Molecule | Tested Target | Assigned Class
CCC(C)(C)c1ccc(OCCCCCN2CCCCC2)cc1.O=C(O)C(=O)O | Mus musculus | inactive
CCC(C)(C)c1ccc(OCCCCN2CCCCCC2)cc1.O=C(O)C(=O)O | Mus musculus | inactive
CCC(C)(C)c1ccc(OCCCCCCN2CCCCC2)cc1.O=C(O)C(=O)O | Mus musculus | inactive
CCC(C)(C)c1ccc(OCCCCCN2CCCC(C)C2)cc1.O=C(O)C(=O)O (stereo unspecified) | Mus musculus | inactive
CCC(C)(C)c1ccc(OCCCCCCCCN2CCCC(C)C2)cc1.O=C(O)C(=O)O (stereo unspecified) | Mus musculus | inactive
CCC(C)(C)c1ccc(OCCCCCCCCN2CCC(C)CC2)cc1.O=C(O)C(=O)O | Mus musculus | active

* * *

tested on: Mus musculus; test: Neurotoxicity in CF-1 albino mouse assessed as death at 300 mg/kg, ip after 0.5 hrs by rotarod test; settings: in vivo
Property Label: Activity

Compound | Property Label | Result
CCC(C)(C)c1ccc(OCCCCCCN2CCCC(C)C2)cc1.O=C(O)C(=O)O (stereo not drawn) | Activity | Toxic
CCC(C)(C)c1ccc(OCCCCCCN2CCC(C)CC2)cc1.O=C(O)C(=O)O | Activity | Toxic
CCC(C)(C)c1ccc(OCCCCCCCN2CCCCC2)cc1.O=C(O)C(=O)O | Activity | Toxic

* * *

target: Histamine H3 receptor (Homo sapiens); experiment: Displacement of [125I]Iodoproxyfan from recombinant human histamine H3 receptor expressed in CHOK1 cell membranes after 90 mins
pKi: −log10 of the molar value.
Attribute: pKi
Property Label: pKi

Compound | Tested Target | Result
CCC(C)(C)c1ccc(OCCCCCCN2CCCCCC2)cc1.O=C(O)C(=O)O | Histamine H3 receptor (Homo sapiens) | 7.39
CCC(C)(C)c1ccc(OCCCCCN2CCC(C)CC2)cc1 | Histamine H3 receptor (Homo sapiens) | 7.63
CCC(C)(C)c1ccc(OCCCCCCCN2CCCCCC2)cc1.O=C(O)C(=O)O | Histamine H3 receptor (Homo sapiens) | 6.89
CCC(C)(C)c1ccc(OCCCCCCCN2CCCCC2)cc1.O=C(O)C(=O)O | Histamine H3 receptor (Homo sapiens) | 7.26
CCC(C)(C)c1ccc(OCCCCCCCN2CCC(C)CC2)cc1.O=C(O)C(=O)O | Histamine H3 receptor (Homo sapiens) | 7.19
CCC(C)(C)c1ccc(OCCCCCCN2CCCC(C)C2)cc1.O=C(O)C(=O)O (stereo unspecified) | Histamine H3 receptor (Homo sapiens) | 7.47

* * *

Parameter Rm: see the listing below.
experiment: Lipophilicity of compound by RP-TLC analysis; format: physicochemical; settings: methanol:acetic acid:water

Molecule | Rm
CCC(C)(C)c1ccc(OCCCCCN2CCCC(C)C2)cc1.O=C(O)C(=O)O (stereo not given) | 2.342
CCC(C)(C)c1ccc(OCCCCCCN2CCCC(C)C2)cc1.O=C(O)C(=O)O (stereo not given) | 2.521
CCC(C)(C)c1ccc(OCCCCCN2CCCCC2)cc1.O=C(O)C(=O)O | 2.172
CCC(C)(C)c1ccc(OCCCCCCCCN2CCCCCC2)cc1.O=C(O)C(=O)O | 3.384
CCC(C)(C)c1ccc(OCCCCCCCN2CCCCC2)cc1.O=C(O)C(=O)O | 2.624
CCC(C)(C)c1ccc(OCCCCCCN2CCCCCC2)cc1.O=C(O)C(=O)O | 2.567
CCC(C)(C)c1ccc(OCCCCN2CCCC(C)C2)cc1.O=C(O)C(=O)O (stereo not given) | 2.294
CCC(C)(C)c1ccc(OCCCCN2CCCCC2)cc1.O=C(O)C(=O)O | 1.883
CCC(C)(C)c1ccc(OCCCCCCCCN2CCCC(C)C2)cc1.O=C(O)C(=O)O (stereo not given) | 3.562
CCC(C)(C)c1ccc(OCCCCCCN2CCCCC2)cc1.O=C(O)C(=O)O | 2.456
CCC(C)(C)c1ccc(OCCCCN2CCCCCC2)cc1.O=C(O)C(=O)O | 2.292
CCC(C)(C)c1ccc(OCCCCCCCN2CCCCCC2)cc1.O=C(O)C(=O)O | 2.926
CCC(C)(C)c1ccc(OCCCCCCCN2CCCC(C)C2)cc1.O=C(O)C(=O)O (stereo not given) | 2.983
CCC(C)(C)c1ccc(OCCCCCCCCN2CCCCC2)cc1.O=C(O)C(=O)O | 3.075
CCC(C)(C)c1ccc(OCCCCCN2CCCCCC2)cc1.O=C(O)C(=O)O | 2.389

* * *

tested on: Mus musculus; assay: Anticonvulsant activity in CF-1 albino mouse assessed as protection against maximal electroshock-induced seizures at 100 mg/kg, ip after 4 hrs; assay type: functional, organism-based
Active and inactive are the calls of the source. No cut-off for these calls is given here.
Outcomes: 1 for active, 0 for inactive

Compound | Assigned Class
CCC(C)(C)c1ccc(OCCCCCCN2CCCCCC2)cc1.O=C(O)C(=O)O | 0
CCC(C)(C)c1ccc(OCCCCCCN2CCCCC2)cc1.O=C(O)C(=O)O | 1
CCC(C)(C)c1ccc(OCCCCCCCN2CCCC(C)C2)cc1.O=C(O)C(=O)O (centres undefined) | 1
CCC(C)(C)c1ccc(OCCCCN2CCCC(C)C2)cc1.O=C(O)C(=O)O (centres undefined) | 1
CCC(C)(C)c1ccc(OCCCCCCCCN2CCC(C)CC2)cc1.O=C(O)C(=O)O | 1
CCC(C)(C)c1ccc(OCCCCCCN2CCCC(C)C2)cc1.O=C(O)C(=O)O (centres undefined) | 1
CCC(C)(C)c1ccc(OCCCCCN2CCCC(C)C2)cc1.O=C(O)C(=O)O (centres undefined) | 1
CCC(C)(C)c1ccc(OCCCCCCCN2CCCCC2)cc1.O=C(O)C(=O)O | 0
CCC(C)(C)c1ccc(OCCCCCCCCN2CCCC(C)C2)cc1.O=C(O)C(=O)O (centres undefined) | 1
CCC(C)(C)c1ccc(OCCCCCCCN2CCC(C)CC2)cc1.O=C(O)C(=O)O | 1
CCC(C)(C)c1ccc(OCCCCCCN2CCC(C)CC2)cc1.O=C(O)C(=O)O | 1
CCC(C)(C)c1ccc(OCCCCN2CCCCCC2)cc1.O=C(O)C(=O)O | 1
CCC(C)(C)c1ccc(OCCCCN2CCC(C)CC2)cc1.O=C(O)C(=O)O | 0
CCC(C)(C)c1ccc(OCCCCCN2CCCCC2)cc1.O=C(O)C(=O)O | 0
